# EXPERIMENTAL_TARGET: T1, HLA-A*01:01_… (HLA-PEPTIDE target G2), recombinant biotinylated complex (human, enzymatically biotinylated (BirA))
# T1 construct: also called G2-pHLA
# METHOD_SUMMARY: BLI, pHLA on sensor, Fab titrated, 1:1 model
PROPERTY: Kd (nM)
Could you give me the number in nM? Just the number is fine.

1. G2(2A03) Fab (Fab, V domains shown, Fab) VH: QVQLVQSGAEVKKPGASVKVSCKASGYTFTSYTVNWVRQAPGQGLEWMGWINPNSGGTKYAQNFQGRVTMTRDTSTSTVYMELSSLRSEDTAVYYCARGGGGALDYWGQGTLVTVSS VL: DIQMTQSPSSLSASVGDRVTITCRASQSISSWLAWYQQKPGKAPKLLIYAASTLQSGVPSRFSGSGSGTDFTLTISSLQPEDFATYYCQQSYLPPYSFGQGTKLEIK | 109

Exercise: Which Kd value belongs to G2(1B12) Fab (Fab, V domains shown, Fab) VH: QVQLVQSGAEVKKPGASVKVSCKASGYTFTSYGITWVRQAPGQGLEWMGWINPNSGGTNYAQKFQGRVTMTRDTSTSTVYMELSSLRSEDTAVYYCARDYGDLDYWGQGTLVTVSS VL: DIQMTQSPSSLSASVGDRVTITCRASQNIGNWLAWYQQKPGKAPKLLIYAASTLQTGVPSRFSGSGSGTDFTLTISSLQPEDFATYYCQQSYSAPYSFGQGTKLEIK ?
Key: 22.8

Exercise: Which Kd value belongs to G2(1H11) Fab (Fab, V domains shown, Fab) VH: QVQLVQSGAEVKKPGASVKVSCKASGYTFTNYYMHWVRQAPGQGLEWMGMINPSGGGTSYAQKFQGRVTMTRDTSTSTVYMELSSLRSEDTAVYYCARGNPWELRLDYWGQGTLVTVSS VL: DIQMTQSPSSLSASVGDRVTITCQASQDISNYLNWYQQKPGKAPKLLIYAASSLQSGVPSRFSGSGSGTDFTLTISSLQPEDFATYYCQQYYSYPFTFGPGTKVDIK ?
Key: 49.9

Data provenance: patent US20240059797A1
